Tested on: 3T3 cells (src−/−) stably transfected with c-Src Y529F
experimental details: Global phosphotyrosine Western blot (4G10) in c-Src Y529F-transfected cells
Assay type: cell-based, murine
experimental context: overnight treatment, serum-free DMEM; read-out: EC50 of reduction of global phosphotyrosine levels
endpoint: EC50

// field: EC50; key: NC(=O)[C@@H]1CCCNC(=O)[C@H](Cc2ccc([N+](=O)[O-])cc2)NC(=O)[C@H](Cc2ccccc2)NC(=O)[C@H](CC2CCCCC2)NC(=O)/C=C/C(=O)N1 ; value = > 100 µM

* * *

tested system: HCK (Homo sapiens, UniProt P08631)
Sequence (P08631 262-515 limits assumed): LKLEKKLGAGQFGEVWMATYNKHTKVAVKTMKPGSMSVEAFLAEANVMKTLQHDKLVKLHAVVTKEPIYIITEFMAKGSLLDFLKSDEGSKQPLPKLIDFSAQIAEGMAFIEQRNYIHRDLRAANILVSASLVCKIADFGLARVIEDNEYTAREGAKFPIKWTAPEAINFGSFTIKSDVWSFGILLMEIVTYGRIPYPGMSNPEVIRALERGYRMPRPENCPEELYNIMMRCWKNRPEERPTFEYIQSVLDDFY
experimental details: Continuous spectrophotometric kinase activity assay
Assay type: biochemical
Parameters: Kinase domain constructs of human c-Abl (residues 229-512), chicken c-Src (residues 251-533 and residues 83-533), murine Lck (residues 227-509), and human Hck (residues 166-445); made in house
experimental context: 5 μM ATP, 300 μM Src optimal peptide
Measured IC50, listed per entry.
Unit µM implied. Number only.

O=C1/C=C\C(=O)N[C@@H](CC2CCCCC2)C(=O)N[C@@H](Cc2ccccc2)C(=O)N[C@@H](CCCNC(=O)c2cnccn2)C(=O)NCC[C@@H](C(=O)O)N1 [MC1.2]
0.46

Please look at the following compound next.
// field: IC50; key: NC(=O)[C@@H]1CCCNC(=O)[C@H](Cc2ccc([N+](=O)[O-])cc2)NC(=O)[C@H](Cc2ccccc2)NC(=O)[C@H](CC2CC2)NC(=O)/C=C/C(=O)N1 [MC4.1] ; value = 6.3

* * *

Measured pIC50, listed per entry.
tested system: Src kinase (Homo sapiens, UniProt P12931)
Sequence (P12931 whole entry): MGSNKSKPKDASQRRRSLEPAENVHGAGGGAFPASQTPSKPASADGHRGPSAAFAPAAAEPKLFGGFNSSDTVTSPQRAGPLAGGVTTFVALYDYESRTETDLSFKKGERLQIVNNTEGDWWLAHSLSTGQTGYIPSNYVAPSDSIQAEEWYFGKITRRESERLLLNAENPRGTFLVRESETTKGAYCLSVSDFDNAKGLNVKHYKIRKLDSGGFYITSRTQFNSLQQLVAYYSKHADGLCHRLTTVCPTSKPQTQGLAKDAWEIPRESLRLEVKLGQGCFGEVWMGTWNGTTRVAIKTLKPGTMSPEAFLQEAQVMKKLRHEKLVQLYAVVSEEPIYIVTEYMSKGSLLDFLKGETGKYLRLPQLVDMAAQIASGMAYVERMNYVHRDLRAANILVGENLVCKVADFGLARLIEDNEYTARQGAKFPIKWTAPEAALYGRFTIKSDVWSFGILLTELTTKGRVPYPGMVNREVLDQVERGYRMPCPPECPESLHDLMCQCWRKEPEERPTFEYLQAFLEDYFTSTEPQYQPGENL
experimental details: Z'-LYTE kinase assay (Invitrogen), Src
experimental context: Z'-LYTE; ATP near KM
// pIC50 here means minus log10 of the molar concentration (mol/L)

So the reported pIC50 for C=CC[C@@H]1NC(=O)/C=C\C(=O)N[C@H](C(N)=O)CCNC(=O)[C@H](CCCNC(=O)c2cnccn2)NC(=O)[C@H](Cc2ccco2)NC1=O [cis-A11-B1-C3-D7] , on Src kinase (Homo sapiens, UniProt P12931), turned out to be 5.00

So the reported pIC50 for NC(=O)[C@@H]1CCNC(=O)[C@H](CCCNC(=O)c2cnccn2)NC(=O)[C@H](Cc2ccco2)NC(=O)[C@H](C/C=C/c2ccccc2)NC(=O)/C=C\C(=O)N1 [cis-A11-B1-C10-D7] , on Src kinase (Homo sapiens, UniProt P12931), turned out to be 5.15

So the reported pIC50 for NC(=O)[C@@H]1CCNC(=O)[C@H](Cc2ccc([N+](=O)[O-])cc2)NC(=O)[C@H](Cc2ccco2)NC(=O)[C@H](CC2CC2)NC(=O)/C=C\C(=O)N1 [cis-A10-B1-C5-D7] , on Src kinase (Homo sapiens, UniProt P12931), turned out to be 5.05
